Reported viability, T/C by item:
Test system: K98450-129-R-PDC complex spheroid growth, percent test/control
Assay Notes: Anticancer human tumor K98450-129-R-PDC patient-derived colon adenocarcinoma cell line growth inhibition [RAS]
Settings: compound 0.0316 µM; hits give low values

Molecule | viability, T/C
CC(=O)OC12COC1CC(O)C1(C)C(=O)C(O)C3=C(C)C(OC(=O)C(O)C(NC(=O)OC(C)(C)C)c4ccccc4)CC(O)(C(OC(=O)c4ccccc4)C21)C3(C)C (stereo not drawn) | 104% [middle of 4 runs]
Nc1ccn(C2OC(CO)C(O)C2(F)F)c(=O)n1 (stereo not drawn) | 78.8% [middle of 4 runs]
Cc1nc(N2CCC3(CC2)COC(C)C3N)c(CO)nc1Sc1ccnc(N)c1Cl (stereo not drawn) | 96.9% [middle of 4 runs]
C=CC(=O)N1CCN(c2nc(OCC3CCCN3C)nc3c(F)c(-c4nc(N)cc(C)c4C(F)(F)F)c(Cl)cc23)C(C)C1 (stereo not drawn) | 71.5% [middle of 13 runs]
C[C@@H](NC(=O)c1ncnc(N)c1Cl)c1ncc(C(=O)Nc2cc(C(F)(F)F)c(Cl)cn2)s1 | 110% [middle of 4 runs]
CC(Nc1ccc2c(c1)OCCn1cc(N3C(=O)OCC3C(F)F)nc1-2)C(N)=O (stereo not drawn) | 99.5% [middle of 4 runs]
O=C(c1ccc(F)c(F)c1Nc1ccc(I)cc1F)N1CC(O)([C@@H]2CCCCN2)C1 | 97.5% [middle of 4 runs]
CCN1CCN(Cc2ccc(Nc3ncc(F)c(-c4cc(F)c5nc(C)n(C(C)C)c5c4)n3)nc2)CC1 | 96.8% [middle of 4 runs]

query: # input molecule: NC1c2ccccc2OC12CCN(c1cnc3c(N4CCCc5ncccc54)n[nH]c3n1)CC2 (stereo not drawn) ; wanted: its viability, T/C
result: 90.2% [middle of 4 runs]

query: Suppose we examine the molecule CC(C)NCC(C(=O)N1CCN(c2ncnc3c2C(C)CC3O)CC1)c1ccc(Cl)cc1 (stereo not drawn) ; what viability, T/C value has been reported?
result: 103% [middle of 4 runs]

query: Record request: viability, T/C value, item CC(C)n1nc(-c2ccc3oc(N)nc3c2)c2c(N)ncnc21
result: 79.8% [middle of 4 runs]

query: For the molecule shown here, CCC(CC)c1cc(NC2CCC(N)C2)n2nccc2n1 (stereo not drawn) , give the reported viability, T/C.
result: 99.1% [middle of 4 runs]

query: Need viability, T/C of C#Cc1c(F)ccc2cc(O)cc(-c3ncc4c(N5CC6CCC(C5)N6)nc(OCC56CCCN5CC(F)C6)nc4c3F)c12 (stereo not drawn) , thanks.
result: 106% [middle of 8 runs]

---

System: K98450-129-R-PDC complex spheroid growth, percent test/control
Assay Notes: Anticancer human tumor K98450-129-R-PDC cell line growth inhibition [RAS];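 note: luminescence used as a proxy for viable cell amount; spheroids exposed to agents for seven days before the viability readout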
Settings: second compound 0.0316 µM; first compound 0.3 µM; hits give low values
Listed molecules paired with reported viability, T/C

Worked examples, 3 molecules total:
Molecule | Result
CCc1c2c(nc3ccc(O)cc13)-c1cc3c(c(=O)n1C2)COC(=O)[C@]3(O)CC + C#Cc1c(F)ccc2cc(O)cc(-c3ncc4c(N5CC6CCC(C5)N6)nc(OCC56CCCN5CC(F)C6)nc4c3F)c12 | 33.5%
CC1(C)CCC(Nc2ncc(C(F)(F)F)c(-c3c[nH]c4c(P(C)(C)=O)c(C#N)ccc34)n2)CN1 (centres undefined) + C#Cc1c(F)ccc2cc(O)cc(-c3ncc4c(N5CC6CCC(C5)N6)nc(OCC56CCCN5CC(F)C6)nc4c3F)c12 | 58.6%
CC1(C)CCC(Nc2ncc(C(F)(F)F)c(-c3c[nH]c4c(P(C)(C)=O)c(C#N)ccc34)n2)CN1 (centres undefined) + C=CC(=O)N1CCN(c2nc(OCC3CCCN3C)nc3c(F)c(-c4nc(N)cc(C)c4C(F)(F)F)c(Cl)cc23)C(C)C1 | 41.2%

Pending molecule:
query: Record request: viability, T/C value, item CCc1c2c(nc3ccc(O)cc13)-c1cc3c(c(=O)n1C2)COC(=O)[C@]3(O)CC + C=CC(=O)N1CCN(c2nc(OCC3CCCN3C)nc3c(F)c(-c4nc(N)cc(C)c4C(F)(F)F)c(Cl)cc23)C(C)C1
result: 18%
